assay target: UniProt:P42866
assay comment: Agonist activity at mouse mu opioid receptor expressed in CHO cells assessed as stimulation of [35S]-GTPgammaS binding after 1.5 hrs relative to DAMGO
Type: functional, cell-based
Classify as follows. Reported Emax greater than or equal to 20%: YES. Reported Emax below: NO.

Field: example entries. Status: answers known.
O=C(Cc1cc2ccccc2cn1)N[C@H]1CC[C@@]2(O)[C@H]3Cc4ccc(O)c5c4[C@@]2(CCN3CC2CC2)[C@H]1O5; NO
O=C(N[C@H]1CC[C@@]2(O)[C@H]3Cc4ccc(O)c5c4[C@@]2(CCN3CC2CC2)[C@H]1O5)c1ncc2ccccc2n1; YES
Cc1nc(C(=O)N[C@H]2CC[C@@]3(O)[C@H]4Cc5ccc(O)c6c5[C@@]3(CCN4CC3CC3)[C@H]2O6)cc2ccccc12; YES
O=C(CCc1cc2ccccc2cn1)N[C@H]1CC[C@@]2(O)[C@H]3Cc4ccc(O)c5c4[C@@]2(CCN3CC2CC2)[C@H]1O5; YES
CN1Cc2ccccc2C[C@H]1C(=O)N[C@H]1CC[C@@]2(O)[C@H]3Cc4ccc(O)c5c4[C@@]2(CCN3CC2CC2)[C@H]1O5; YES

Q: Assess whether reported Emax for N#Cc1nc(C(=O)N[C@H]2CC[C@@]3(O)[C@H]4Cc5ccc(O)c6c5[C@@]3(CCN4CC3CC3)[C@H]2O6)cc2ccccc12 sits at 20% or higher.
Ans: YES

Q: Assess whether reported Emax for O=C(CNC(=O)c1cc2ccccc2cn1)N[C@H]1CC[C@@]2(O)[C@H]3Cc4ccc(O)c5c4[C@@]2(CCN3CC2CC2)[C@H]1O5 sits at 20% or higher.
Ans: NO

###

Here's a batch of molecules along with measured Ki for Kappa-type opioid receptor (Mus musculus, UniProt P33534).
Hi! Could you send only the number? It should be in nM, unit omitted.

O=C(CCc1cc2ccccc2cn1)N[C@H]1CC[C@@]2(O)[C@H]3Cc4ccc(O)c5c4[C@@]2(CCN3CC2CC2)[C@H]1O5; 1.61
Cc1nc(C(=O)N[C@H]2CC[C@@]3(O)[C@H]4Cc5ccc(O)c6c5[C@@]3(CCN4CC3CC3)[C@H]2O6)cc2ccccc12; 29.1
O=C(N[C@H]1CC[C@@]2(O)[C@H]3Cc4ccc(O)c5c4[C@@]2(CCN3CC2CC2)[C@H]1O5)c1cc2ccccc2c(Cl)n1; 10.8
O=C(N[C@H]1CC[C@@]2(O)[C@H]3Cc4ccc(O)c5c4[C@@]2(CCN3CC2CC2)[C@H]1O5)c1nc(Cl)c2ccccc2c1O; 18.3
O=C(N[C@H]1CC[C@@]2(O)[C@H]3Cc4ccc(O)c5c4[C@@]2(CCN3CC2CC2)[C@H]1O5)c1ncc2ccccc2c1O; 4

Q: Ki of N#Cc1nc(C(=O)N[C@H]2CC[C@@]3(O)[C@H]4Cc5ccc(O)c6c5[C@@]3(CCN4CC3CC3)[C@H]2O6)cc2ccccc12 on Kappa-type opioid receptor (Mus musculus, UniProt P33534)?
Ans: 10.1

Q: Ki of CN1Cc2ccccc2C[C@H]1C(=O)N[C@H]1CC[C@@]2(O)[C@H]3Cc4ccc(O)c5c4[C@@]2(CCN3CC2CC2)[C@H]1O5 on Kappa-type opioid receptor (Mus musculus, UniProt P33534)?
Ans: 6.76

###

Species on record: Mus musculus
assay comment: Selectivity ratio of Ki for mouse kappa opioid receptor to Ki for mouse mu opioid receptor
recorded endpoint: Ratio Ki
Write the number on its own, no unit after it.

O=C(Cc1cc2ccccc2cn1)N[C@H]1CC[C@@]2(O)[C@H]3Cc4ccc(O)c5c4[C@@]2(CCN3CC2CC2)[C@H]1O5; 0.9
O=C(N[C@H]1CC[C@@]2(O)[C@H]3Cc4ccc(O)c5c4[C@@]2(CCN3CC2CC2)[C@H]1O5)c1ncc2ccccc2n1; 4.6

Q: Consider the compound shown here: O=C(N[C@H]1CC[C@@]2(O)[C@H]3Cc4ccc(O)c5c4[C@@]2(CCN3CC2CC2)[C@H]1O5)c1nc(Cl)c2ccccc2c1O What is its recorded Ratio Ki?
Ans: 25

Q: Consider the compound shown here: N#Cc1nc(C(=O)N[C@H]2CC[C@@]3(O)[C@H]4Cc5ccc(O)c6c5[C@@]3(CCN4CC3CC3)[C@H]2O6)cc2ccccc12 What is its recorded Ratio Ki?
Ans: 10

Q: Consider the compound shown here: O=C(CNC(=O)c1cc2ccccc2cn1)N[C@H]1CC[C@@]2(O)[C@H]3Cc4ccc(O)c5c4[C@@]2(CCN3CC2CC2)[C@H]1O5 What is its recorded Ratio Ki?
Ans: 0.2

Q: Consider the compound shown here: CN1Cc2ccccc2C[C@H]1C(=O)N[C@H]1CC[C@@]2(O)[C@H]3Cc4ccc(O)c5c4[C@@]2(CCN3CC2CC2)[C@H]1O5 What is its recorded Ratio Ki?
Ans: 2.3

Q: Consider the compound shown here: O=C(CCc1cc2ccccc2cn1)N[C@H]1CC[C@@]2(O)[C@H]3Cc4ccc(O)c5c4[C@@]2(CCN3CC2CC2)[C@H]1O5 What is its recorded Ratio Ki?
Ans: 2.4

###

Quick reference for pEC50 among some molecules
assay target: UniProt P42866
assay comment: Agonist activity at mouse mu opioid receptor expressed in CHO cells assessed as stimulation of [35S]-GTPgammaS binding after 1.5 hrs
As a rule, pEC50 stands for the negative log10 of the concentration, concentration in M.

Before answering, review these 6 worked examples.
O=C(N[C@H]1CC[C@@]2(O)[C@H]3Cc4ccc(O)c5c4[C@@]2(CCN3CC2CC2)[C@H]1O5)c1nc(Cl)c2ccccc2c1O; 8.91
CN1Cc2ccccc2C[C@H]1C(=O)N[C@H]1CC[C@@]2(O)[C@H]3Cc4ccc(O)c5c4[C@@]2(CCN3CC2CC2)[C@H]1O5; 7.71
COc1c(C(=O)N[C@H]2CC[C@@]3(O)[C@H]4Cc5ccc(O)c6c5[C@@]3(CCN4CC3CC3)[C@H]2O6)nc(Cl)c2ccccc12; 8.76
O=C(CCc1cc2ccccc2cn1)N[C@H]1CC[C@@]2(O)[C@H]3Cc4ccc(O)c5c4[C@@]2(CCN3CC2CC2)[C@H]1O5; 8.94
O=C(N[C@H]1CC[C@@]2(O)[C@H]3Cc4ccc(O)c5c4[C@@]2(CCN3CC2CC2)[C@H]1O5)c1ncc2ccccc2n1; 8.22
N#Cc1nc(C(=O)N[C@H]2CC[C@@]3(O)[C@H]4Cc5ccc(O)c6c5[C@@]3(CCN4CC3CC3)[C@H]2O6)cc2ccccc12; 8.48

Q: Consider the molecule shown here: O=C(CNC(=O)c1cc2ccccc2cn1)N[C@H]1CC[C@@]2(O)[C@H]3Cc4ccc(O)c5c4[C@@]2(CCN3CC2CC2)[C@H]1O5 What is its recorded pEC50?
Ans: 7.85

Q: Consider the molecule shown here: O=C(Cc1cc2ccccc2cn1)N[C@H]1CC[C@@]2(O)[C@H]3Cc4ccc(O)c5c4[C@@]2(CCN3CC2CC2)[C@H]1O5 What is its recorded pEC50?
Ans: 8.34

Q: Consider the molecule shown here: O=C(N[C@H]1CC[C@@]2(O)[C@H]3Cc4ccc(O)c5c4[C@@]2(CCN3CC2CC2)[C@H]1O5)c1ncc2ccccc2c1O What is its recorded pEC50?
Ans: 8.97

Q: Consider the molecule shown here: Cc1nc(C(=O)N[C@H]2CC[C@@]3(O)[C@H]4Cc5ccc(O)c6c5[C@@]3(CCN4CC3CC3)[C@H]2O6)cc2ccccc12 What is its recorded pEC50?
Ans: 8.14

###

Here's a batch of compounds along with measured Ki for Kappa-type opioid receptor (Mus musculus, UniProt P33534).
Hi! Could you send only the number? It should be in nM, unit omitted.

O=C(CNC(=O)c1cc2ccccc2cn1)N[C@H]1CC[C@@]2(O)[C@H]3Cc4ccc(O)c5c4[C@@]2(CCN3CC2CC2)[C@H]1O5; 0.61
O=C(N[C@H]1CC[C@@]2(O)[C@H]3Cc4ccc(O)c5c4[C@@]2(CCN3CC2CC2)[C@H]1O5)c1ncc2ccccc2n1; 5.1

Q: Ki of COc1c(C(=O)N[C@H]2CC[C@@]3(O)[C@H]4Cc5ccc(O)c6c5[C@@]3(CCN4CC3CC3)[C@H]2O6)nc(Cl)c2ccccc12 on Kappa-type opioid receptor (Mus musculus, UniProt P33534)?
Ans: 22.2

Q: Ki of O=C(Cc1cc2ccccc2cn1)N[C@H]1CC[C@@]2(O)[C@H]3Cc4ccc(O)c5c4[C@@]2(CCN3CC2CC2)[C@H]1O5 on Kappa-type opioid receptor (Mus musculus, UniProt P33534)?
Ans: 1.1

###

Species: Mus musculus
assay comment: Selectivity ratio of Ki for mouse delta opioid receptor to Ki for mouse mu opioid receptor
Quick reference for Ratio Ki among some molecules
Write the number on its own, no unit after it.

Before answering, review these 4 worked examples.
O=C(Cc1cc2ccccc2cn1)N[C@H]1CC[C@@]2(O)[C@H]3Cc4ccc(O)c5c4[C@@]2(CCN3CC2CC2)[C@H]1O5; 10
CN1Cc2ccccc2C[C@H]1C(=O)N[C@H]1CC[C@@]2(O)[C@H]3Cc4ccc(O)c5c4[C@@]2(CCN3CC2CC2)[C@H]1O5; 3.2
O=C(N[C@H]1CC[C@@]2(O)[C@H]3Cc4ccc(O)c5c4[C@@]2(CCN3CC2CC2)[C@H]1O5)c1nc(Cl)c2ccccc2c1O; 24
N#Cc1nc(C(=O)N[C@H]2CC[C@@]3(O)[C@H]4Cc5ccc(O)c6c5[C@@]3(CCN4CC3CC3)[C@H]2O6)cc2ccccc12; 131

Q: Consider the molecule shown here: O=C(CCc1cc2ccccc2cn1)N[C@H]1CC[C@@]2(O)[C@H]3Cc4ccc(O)c5c4[C@@]2(CCN3CC2CC2)[C@H]1O5 What is its recorded Ratio Ki?
Ans: 12

Q: Consider the molecule shown here: O=C(N[C@H]1CC[C@@]2(O)[C@H]3Cc4ccc(O)c5c4[C@@]2(CCN3CC2CC2)[C@H]1O5)c1ncc2ccccc2n1 What is its recorded Ratio Ki?
Ans: 71

Q: Consider the molecule shown here: O=C(CNC(=O)c1cc2ccccc2cn1)N[C@H]1CC[C@@]2(O)[C@H]3Cc4ccc(O)c5c4[C@@]2(CCN3CC2CC2)[C@H]1O5 What is its recorded Ratio Ki?
Ans: 3.4
